Each entry below carries its reported koff.
Tgt: T1, human ROR1-hFc fusion protein (extracellular domain) (human)
T1 construct: Whole entry 'human ROR1-Fc (CHO)'; also called hROR1; huROR1-Fc
Test method notes: SPR, ROR1-hFc on chip
Property: koff (s⁻¹)

INSERT INTO assay_data (binder, unit_spec, value_observed) VALUES
  ('P3A1-[G4S]5-P3A1 his myc (VNAR, VNAR homodimer by genetic fusion; also called P3A1-P3A1; P3A1 dimer) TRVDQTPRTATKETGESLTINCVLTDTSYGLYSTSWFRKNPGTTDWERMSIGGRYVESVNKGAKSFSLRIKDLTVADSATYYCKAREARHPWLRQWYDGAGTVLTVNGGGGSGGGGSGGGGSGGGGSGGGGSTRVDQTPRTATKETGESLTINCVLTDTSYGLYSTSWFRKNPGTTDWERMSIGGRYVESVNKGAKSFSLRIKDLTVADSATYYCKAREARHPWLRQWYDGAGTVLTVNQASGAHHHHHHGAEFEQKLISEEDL', 's⁻¹', 0.00112),
  ('CPF7 his myc (VNAR, VNAR) VNAR: TRVDQTPRTATKETGESLTINCVVTGAKYGLFATYWYRKNPGSSNQERISISGRYVESVNKRTMSFSLRIKDLTVADSATYYCKAVFMPQHWHPAAHWYDGAGTVLTVNQ', 's⁻¹', 0.0296),
  ('E7 his myc (VNAR, VNAR) VNAR: TRVDQTPRTATKETGESLTINCVVTGAKYGLAATYWYRKNPGSSNQERISISGRYVESVNKRTMSFSLRIKDLTVADSATYYCKAYPWAMWGQWYDGAGTVLTVNQ', 's⁻¹', 0.0118),
  ('P3A1 his myc (VNAR, VNAR; also called P3A1 6xHis myc) VNAR: TRVDQTPRTATKETGESLTINCVLTDTSYGLYSTSWFRKNPGTTDWERMSIGGRYVESVNKGAKSFSLRIKDLTVADSATYYCKAREARHPWLRQWYDGAGTVLTVNQ', 's⁻¹', 0.0442);
